List of concentration at 0.35 h values.
- test-details: Plasma pharmacokinetics and brain distribution after single IV, IP and oral administration
- Type: in vivo
- particulars: male, C57BL/6, mouse, in vivo, po, 10 mg/kg, Mean plasma conc.
- Procedure: The objective of this study was to investigate the plasma pharmacokinetics and brain distribution of Compound (14 in male C57BL/6 mice following a single intravenous, intraperitoneal and oral administration. A group of sixty-three male mice were divided into three groups (Group 1: 2 mg/kg/IV; Group 2: 10 mg/kg/IP and Group 3: 10 mg/kg/PO) with each group comprising of twenty-one mice. […]
Structures can show the parent of a compound that is named as a salt.
Express your answer in ng/mL, writing the number without its unit.

// worked examples, concentration at 0.35 h included
[2H]C([2H])([2H])Oc1ccc(Nc2nc(-c3c(C)nc4ccccn34)cs2)cc1 [Compound 15, hydrochloride]    261
[2H]C1([2H])Oc2ccc(Nc3nc(-c4c(C)nc5ccccn45)cs3)cc2O1 [Compound 17, hydrochloride]    163

So for Cc1nc2ccccn2c1-c1csc(Nc2ccc3c(c2)OC(F)(F)O3)n1 [Compound 16, hydrochloride] , the logged concentration at 0.35 h turned out to be 138

* * *

- test-details: Plasma pharmacokinetics and brain distribution after single IV, IP and oral administration
- Assay type: in vivo
- particulars: male, C57BL/6, mouse, in vivo, iv, 2 mg/kg, Plasma concentration, individual animal
Where a name gives a salt, the structure may show the parent alone.
endpoint-name: concentration at 0.08 h

[2H]C([2H])([2H])Oc1ccc(Nc2nc(-c3c(C)nc4ccccn34)cs2)cc1 [Compound 15, hydrochloride]    298 ng/mL

Next compound, please.
Looking up [2H]C1([2H])Oc2ccc(Nc3nc(-c4c(C)nc5ccccn45)cs3)cc2O1 [Compound 17, hydrochloride] , I see its concentration at 0.08 h listed as 260 ng/mL

* * *

- test-details: Plasma pharmacokinetics and brain distribution after single IV, IP and oral administration
- Format: in vivo
- particulars: male, C57BL/6, mouse, in vivo, iv, 2 mg/kg, Mean plasma conc.
Structures can show the parent of a compound that is named as a salt.
endpoint-name: concentration at 0.08 h (ng/mL)
Hi! Could you send only the number? It should be in ng/mL, unit omitted.

[2H]C([2H])([2H])Oc1ccc(Nc2nc(-c3c(C)nc4ccccn34)cs2)cc1 [Compound 15, hydrochloride]    313

Now for the molecule whose concentration at 0.08 h we want.
The molecule [2H]C1([2H])Oc2ccc(Nc3nc(-c4c(C)nc5ccccn45)cs3)cc2O1 [Compound 17, hydrochloride] showed concentration at 0.08 h equal to 256

* * *

- test-details: Plasma pharmacokinetics and brain distribution after single IV, IP and oral administration
- Type: in vivo
- particulars: male, C57BL/6, mouse, in vivo, po, 10 mg/kg, Mean brain conc.
- Description: The objective of this study was to investigate the plasma pharmacokinetics and brain distribution of Compound (14 in male C57BL/6 mice following a single intravenous, intraperitoneal and oral administration. A group of sixty-three male mice were divided into three groups (Group 1: 2 mg/kg/IV; Group 2: 10 mg/kg/IP and Group 3: 10 mg/kg/PO) with each group comprising of twenty-one mice. […]
Structures can show the parent of a compound that is named as a salt.
Reported values of concentration at 0.35 h for individual entries
Give a bare numeral; the unit ng/g is implied.

Known results for compounds:
[2H]C1([2H])Oc2ccc(Nc3nc(-c4c(C)nc5ccccn45)cs3)cc2O1 [Compound 17, hydrochloride]    53
Cc1nc2ccccn2c1-c1csc(Nc2ccc3c(c2)OC(F)(F)O3)n1 [Compound 16, hydrochloride]    254

Measured concentration at 0.35 h of [2H]C([2H])([2H])Oc1ccc(Nc2nc(-c3c(C)nc4ccccn34)cs2)cc1 [Compound 15, hydrochloride] : 108
